Recorded inhibition at 100 µM for the following compounds
Tested on: RAW264.7
Experiment: Neuroprotective activity in mouse RAW264.7 cells assessed as inhibition of LPS-stimulated nitric oxide release at 100 uM after 20 to 24 hrs by Griess assay relative to control
Assay type: functional
The response must be a number in % with no trailing unit.

c1ccc(CCCCN2CCC(c3ccccc3)CC2)cc1 ... 23.7

Q: Tell me the measured inhibition at 100 µM of Fc1cccc(CCN[C@H]2C3C4CC5C6C4CC3C6C52)c1 (stereo not given in full) , please.
Ans: 23

Q: Tell me the measured inhibition at 100 µM of OC12C3C4CC5C6C4C1C6C(C53)N2Cc1ccccc1 (stereo not given) , please.
Ans: 27.2

Q: Tell me the measured inhibition at 100 µM of OC12C3C4CC5C6C4C1C6C(C53)N2Cc1cccc(F)c1 (stereo not given) , please.
Ans: 43.2

Q: Tell me the measured inhibition at 100 µM of COc1ccc(CN2C3C4C5CC6C7C5C3C7C2(O)C64)cc1OC (stereo not given) , please.
Ans: 28.4

* * *

Recorded Ki for the following compounds
Target: 5-hydroxytryptamine receptor 2A (Homo sapiens, UniProt P28223)
Sequence (P28223 whole entry): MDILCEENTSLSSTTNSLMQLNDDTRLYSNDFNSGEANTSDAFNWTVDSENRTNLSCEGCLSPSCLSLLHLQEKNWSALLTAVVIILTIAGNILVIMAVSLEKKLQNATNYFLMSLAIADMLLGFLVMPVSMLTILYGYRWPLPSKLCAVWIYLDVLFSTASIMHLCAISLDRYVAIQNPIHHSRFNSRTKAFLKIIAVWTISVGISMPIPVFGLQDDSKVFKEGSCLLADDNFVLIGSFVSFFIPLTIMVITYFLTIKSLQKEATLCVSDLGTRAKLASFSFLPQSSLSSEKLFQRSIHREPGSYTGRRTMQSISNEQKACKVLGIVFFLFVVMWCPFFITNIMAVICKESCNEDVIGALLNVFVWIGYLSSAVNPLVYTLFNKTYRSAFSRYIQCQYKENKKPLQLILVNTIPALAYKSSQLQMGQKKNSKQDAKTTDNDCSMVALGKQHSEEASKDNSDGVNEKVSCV

Below, 2 compounds whose answers are already recorded.
CN(CCCc1cccc(F)c1)[C@H]1C2C3CC4C5C3CC2C5C41 (stereo partly drawn) ... > 10 µM
CN(Cc1ccccc1)[C@H]1C2C3CC4C5C3CC2C5C41 (stereo partly drawn) ... > 10 µM

With those in mind, consider the next compound.
Q: GET /values?readout=Ki&system=5-hydroxytryptamine receptor 2A (Homo sapiens, UniProt P28223)&item= c1ccc(CCN[C@H]2C3C4CC5C6C4CC3C6C52)cc1 (stereo partly drawn)
Ans: > 10 µM

* * *

Target: Sigma non-opioid intracellular receptor 1 (Rattus norvegicus, UniProt Q9R0C9)
Sequence (Q9R0C9 whole entry): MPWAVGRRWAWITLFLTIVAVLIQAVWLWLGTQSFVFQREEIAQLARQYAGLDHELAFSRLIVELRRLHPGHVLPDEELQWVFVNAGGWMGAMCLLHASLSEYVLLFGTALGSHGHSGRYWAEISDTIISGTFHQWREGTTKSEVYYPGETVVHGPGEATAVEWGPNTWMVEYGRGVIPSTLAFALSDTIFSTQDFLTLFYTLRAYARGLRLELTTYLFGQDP
Experiment: Displacement of [3H](+)-pentazocine from sigma-1 receptor in rat brain homogenates
Recorded pKi for the following molecules
Answer as the number alone; pKi is minus log10 of concentration in mol/L.

Below, 6 molecules whose answers are already recorded.
COc1ccc(CN(C)[C@H]2C3C4CC5C3C(=O)C3C5C4C32)cc1OC (stereo partly drawn) ... 5.99
CN(CC1CCCCC1)[C@H]1C2C3CC4C5C3CC2C5C41 (stereo partly drawn) ... 7.82
CN(Cc1ccc2c(c1)OCO2)[C@H]1C2C3CC4C5C3CC2C5C41 (stereo partly drawn) ... 6.68
COc1ccc(CN[C@H]2C3C4CC5C6C4CC3C6C52)cc1OC (stereo partly drawn) ... 7.03
c1ccc(CCN[C@H]2C3C4CC5C6C4CC3C6C52)cc1 (stereo partly drawn) ... 7.31
c1ccc(CCN[C@H]2C3C4CC5C6C4CC3C6C52)nc1 (stereo partly drawn) ... 7.67

Q: Tell me the measured pKi of CN(Cc1cccnc1)[C@H]1C2C3CC4C5C3CC2C5C41 (stereo partly drawn) , please.
Ans: 6.01

Q: Tell me the measured pKi of CN(CCc1cccc(F)c1)[C@H]1C2C3CC4C2C(=O)C2C4C3C21 (stereo partly drawn) , please.
Ans: 6.39

* * *

Molecular target: D(2) dopamine receptor (Homo sapiens, UniProt P14416)
Sequence (P14416 whole entry): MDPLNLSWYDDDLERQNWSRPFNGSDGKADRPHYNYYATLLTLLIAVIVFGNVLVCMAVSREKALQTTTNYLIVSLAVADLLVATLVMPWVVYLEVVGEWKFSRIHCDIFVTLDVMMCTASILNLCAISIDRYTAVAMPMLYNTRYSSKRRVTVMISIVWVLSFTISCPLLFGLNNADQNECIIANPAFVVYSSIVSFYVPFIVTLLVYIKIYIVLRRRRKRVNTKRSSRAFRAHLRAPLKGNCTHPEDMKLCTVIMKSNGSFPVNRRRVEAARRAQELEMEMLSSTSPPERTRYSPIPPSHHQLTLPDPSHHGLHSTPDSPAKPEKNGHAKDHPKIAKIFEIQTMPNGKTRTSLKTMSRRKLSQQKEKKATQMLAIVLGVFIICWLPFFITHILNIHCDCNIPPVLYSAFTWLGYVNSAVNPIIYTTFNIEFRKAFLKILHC
Test: Inhibition of dopamine D2 receptor (unknown origin) by PDSP assay
pKi: −log10 of the molar value.
Recorded pKi for the following molecules

c1ccc(CCN[C@H]2C3C4CC5C6C4CC3C6C52)cc1 (stereo partly drawn) ... < 5.00

Q: GET /values?readout=pKi&system=D(2) dopamine receptor (Homo sapiens, UniProt P14416)&item= Fc1cccc(CCCN[C@H]2C3C4CC5C6C4CC3C6C52)c1 (stereo partly drawn)
Ans: < 5.00

Q: GET /values?readout=pKi&system=D(2) dopamine receptor (Homo sapiens, UniProt P14416)&item= c1cncc(CN[C@H]2C3C4CC5C6C4CC3C6C52)c1 (stereo partly drawn)
Ans: < 5.00

* * *

Biological target: Sodium-dependent serotonin transporter (Homo sapiens, UniProt P31645)
Sequence (P31645 whole entry, looked up): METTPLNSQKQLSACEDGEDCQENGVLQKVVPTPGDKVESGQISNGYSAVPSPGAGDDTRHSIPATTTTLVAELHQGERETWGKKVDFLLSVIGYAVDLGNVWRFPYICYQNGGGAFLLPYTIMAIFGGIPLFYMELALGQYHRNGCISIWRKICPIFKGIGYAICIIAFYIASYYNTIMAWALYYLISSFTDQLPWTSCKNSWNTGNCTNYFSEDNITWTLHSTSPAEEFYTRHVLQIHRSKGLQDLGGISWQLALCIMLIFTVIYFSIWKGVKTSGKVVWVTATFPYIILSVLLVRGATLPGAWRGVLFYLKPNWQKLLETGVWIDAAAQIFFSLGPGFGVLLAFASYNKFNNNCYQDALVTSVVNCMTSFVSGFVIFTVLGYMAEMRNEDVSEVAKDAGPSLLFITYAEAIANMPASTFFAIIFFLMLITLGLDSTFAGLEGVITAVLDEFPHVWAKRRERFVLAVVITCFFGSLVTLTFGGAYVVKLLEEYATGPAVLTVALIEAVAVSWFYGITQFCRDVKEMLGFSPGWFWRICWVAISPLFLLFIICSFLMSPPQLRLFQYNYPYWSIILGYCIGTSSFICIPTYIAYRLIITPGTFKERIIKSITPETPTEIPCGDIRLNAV
Assay: Displacement of [3H]-citalopram from human SERT expressed in HEK cell membranes at 10 uM relative to control
Conditions: HEK293
MEASURED QUANTITY: inhibition

CN(CCc1ccccc1)[C@H]1C2C3CC4C2C(=O)C2C4C3C21 (stereo partly drawn) ... < 50%
CN(Cc1cccnc1)[C@H]1C2C3CC4C2C(=O)C2C4C3C21 (stereo partly drawn) ... < 50%

With those in mind, consider the next molecule.
Q: Tell me the measured inhibition of CN(CCCc1cccc(F)c1)[C@H]1C2C3CC4C5C3CC2C5C41 (stereo partly drawn) , please.
Ans: < 50%

* * *

Target: Sigma non-opioid intracellular receptor 1 (Rattus norvegicus)
Assay: Displacement of [3H](+)-pentazocine from sigma-1 receptor in rat brain homogenates
MEASURED QUANTITY: pKi
Answer as the number alone; pKi is minus log10 of concentration in mol/L.

c1cc2c(cc1CN[C@H]1C3C4CC5C6C4CC3C6C51)OCO2 (stereo not given in full) ... 7.77
CN(Cc1ccccc1)[C@H]1C2C3CC4C5C3CC2C5C41 (stereo not given in full) ... 6.11
Fc1cccc(CCN[C@H]2C3C4CC5C6C4CC3C6C52)c1 (stereo not given in full) ... 7.18
CN(CCc1ccccc1)[C@H]1C2C3CC4C2C(=O)C2C4C3C21 (stereo not given in full) ... 6.08
CN(Cc1cccnc1)[C@H]1C2C3CC4C2C(=O)C2C4C3C21 (stereo not given in full) ... 6.13
CN(CCCc1cccc(F)c1)[C@H]1C2C3CC4C5C3CC2C5C41 (stereo not given in full) ... 6.37

Q: Tell me the measured pKi of c1ccc(CN[C@H]2C3C4CC5C6C4CC3C6C52)cc1 (stereo not given in full) , please.
Ans: 7.11

Q: Tell me the measured pKi of CN(CCc1ccccn1)[C@H]1C2C3CC4C5C3CC2C5C41 (stereo not given in full) , please.
Ans: 6.35

Q: Tell me the measured pKi of COc1ccc(CN(C)[C@H]2C3C4CC5C6C4CC3C6C52)cc1OC (stereo not given in full) , please.
Ans: 6.59

Values were extracted from ChEMBL document CHEMBL2429832.
